Hey, just so you know, these numbers are from ChEMBL document CHEMBL1136542.

- testTarget: Disintegrin and metalloproteinase domain-containing protein 17 (Homo sapiens)
- Sequence (P78536 whole entry, the tested form may be a part): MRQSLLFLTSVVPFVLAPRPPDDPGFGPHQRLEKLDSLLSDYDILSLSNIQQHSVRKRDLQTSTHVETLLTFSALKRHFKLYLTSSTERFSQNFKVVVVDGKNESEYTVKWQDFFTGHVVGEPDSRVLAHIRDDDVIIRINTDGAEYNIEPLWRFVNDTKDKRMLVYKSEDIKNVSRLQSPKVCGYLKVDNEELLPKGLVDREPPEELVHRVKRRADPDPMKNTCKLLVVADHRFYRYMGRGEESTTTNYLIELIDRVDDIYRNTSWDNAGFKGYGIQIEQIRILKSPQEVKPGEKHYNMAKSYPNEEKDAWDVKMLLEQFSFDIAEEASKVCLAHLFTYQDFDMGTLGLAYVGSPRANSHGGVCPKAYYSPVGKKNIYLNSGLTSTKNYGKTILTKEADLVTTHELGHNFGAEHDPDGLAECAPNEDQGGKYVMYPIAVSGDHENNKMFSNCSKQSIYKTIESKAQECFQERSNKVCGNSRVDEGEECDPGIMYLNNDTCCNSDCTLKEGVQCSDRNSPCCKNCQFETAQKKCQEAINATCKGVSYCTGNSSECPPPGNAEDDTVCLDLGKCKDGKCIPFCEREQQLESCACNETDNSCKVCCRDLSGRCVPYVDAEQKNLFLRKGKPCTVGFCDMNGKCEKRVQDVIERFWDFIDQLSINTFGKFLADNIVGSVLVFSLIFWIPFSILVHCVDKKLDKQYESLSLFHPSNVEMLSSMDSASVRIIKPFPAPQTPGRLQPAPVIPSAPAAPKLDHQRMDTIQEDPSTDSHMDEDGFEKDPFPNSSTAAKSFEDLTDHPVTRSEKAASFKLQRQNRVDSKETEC
- measurementProtocol: Inhibition of TNF-alpha production from LPS stimulated human whole blood.
- Type: functional, tissue-based
Reported pIC50 values are given for each entry in this list.
Quick note: pIC50 means taking -log10 of the concentration in moles per liter.

structure=COC(=O)N[C@H](C(=O)NO)[C@H]1CCN(c2ccc(OCc3cc(C)nc4ccccc34)cc2)C1=O experimentalresult=5.58
structure=Cc1cc(COc2ccc(N3CC[C@H]([C@H](C)C(=O)NO)C3=O)cc2)c2ccccc2n1 experimentalresult=5.80
structure=Cc1cc(COc2ccc(N3CC[C@](N)([C@H](C)C(=O)NO)C3=O)cc2)c2ccccc2n1 experimentalresult=5.96

Data request, read-out pIC50, for Cc1cc(COc2ccc(N3CC[C@H]([C@H](C)N(O)C=O)C3=O)cc2)c2ccccc2n1 5.06

Data request, read-out pIC50, for Cc1cc(COc2ccc(N3CC[C@H]([C@H](O)C(=O)NO)C3=O)cc2)c2ccccc2n1 5.62

Data request, read-out pIC50, for Cc1cc(COc2ccc(N3CC[C@](N)(CC(=O)NO)C3=O)cc2)c2ccccc2n1 5.32

Data request, read-out pIC50, for Cc1cc(COc2ccc(N3CC[C@H]([C@H](N)C(=O)NO)C3=O)cc2)c2ccccc2n1 5.77

Data request, read-out pIC50, for CCCCOC(=O)N[C@H](C(=O)NO)[C@H]1CCN(c2ccc(OCc3cc(C)nc4ccccc34)cc2)C1=O 5.17

Data request, read-out pIC50, for CC(=O)N[C@H](C(=O)NO)[C@H]1CCN(c2ccc(OCc3cc(C)nc4ccccc34)cc2)C1=O 5.81

Data request, read-out pIC50, for Cc1cc(COc2ccc(N3CC[C@H]([C@H](NC(=O)N4CCOCC4)C(=O)NO)C3=O)cc2)c2ccccc2n1 6.08

Data request, read-out pIC50, for Cc1cc(COc2ccc(N3CC[C@H]([C@H](NC(=O)c4ccccc4)C(=O)NO)C3=O)cc2)c2ccccc2n1 5.04
